test system: C. pseudotuberculosis wild-type
MEASUREMENT_TYPE: MIC wt (µg/mL)

COMPOUND | MEASUREMENT_TARGET | MEASUREMENT_TYPE | UNIT_TEXT | MEASURED
CNC(C)C1CCC(N)C(OC2C(N)CC(N)C(OC3OCC(C)(O)C(NC)C3O)C2O)O1 (stereo not shown) [Gentamicin] | C. pseudotuberculosis wild-type | MIC wt | µg/mL | 5
CN(C)[C@@H]1C(O)=C(C(N)=O)C(=O)[C@@]2(O)C(O)=C3C(=O)c4c(O)cccc4[C@@](C)(O)[C@H]3C[C@@H]12 [Tetracycline] | C. pseudotuberculosis wild-type | MIC wt | µg/mL | 0.312
CN[C@@H]1[C@@H](O[C@H]2O[C@H](CO)[C@@H](N)[C@H](O)[C@H]2O)OC2C[C@@H](N)[C@@H](O[C@H]3[C@H](O)[C@@H](O)[C@H](N)C[C@@H]3N)OC2[C@@H]1O (stereo partly shown) [Apramycin] | C. pseudotuberculosis wild-type | MIC wt | µg/mL | 20
[H]/N=C(/N)N[C@H]1[C@H](O)[C@@H](O)[C@H](O[C@@H]2O[C@@H](C)[C@](O)(C=O)[C@H]2O[C@@H]2O[C@@H](CO)[C@H](O)[C@@H](O)[C@@H]2NC)[C@@H](N/C(N)=N\[H])[C@@H]1O [Streptomycin] | C. pseudotuberculosis wild-type | MIC wt | µg/mL | 20
CC1(C)S[C@@H]2[C@H](NC(=O)[C@H](NC(=O)N3CCNC3=O)c3ccccc3)C(=O)N2[C@H]1C(=O)O [Azlocillin] | C. pseudotuberculosis wild-type | MIC wt | µg/mL | 0.156
CCCNC[C@]1(O)[C@H](C)O[C@@H](O[C@H]2[C@H](C)[C@@H](O[C@@H]3O[C@H](C)C[C@H](N(C)C)[C@H]3O)[C@](C)(O)C[C@@H](C)CN[C@H](C)[C@@H](O)[C@](C)(O)[C@@H](CC)OC(=O)[C@@H]2C)C[C@@]1(C)OC [Tulathromycin] | C. pseudotuberculosis wild-type | MIC wt | µg/mL | 2.5
NC[C@H]1O[C@H](O[C@H]2[C@H](O)[C@@H](O[C@H]3O[C@H](CO)[C@@H](O)[C@H](N)[C@H]3O)[C@H](N)C[C@@H]2N)[C@H](O)[C@@H](O)[C@@H]1O [Kanamycin] | C. pseudotuberculosis wild-type | MIC wt | µg/mL | 10

* * *

tested on: C. pseudotuberculosis ΔlysX complement

MOLECULE | MIC ΔlysX complement
[H]/N=C(/N)N[C@H]1[C@H](O)[C@@H](O)[C@H](O[C@@H]2O[C@@H](C)[C@](O)(C=O)[C@H]2O[C@@H]2O[C@@H](CO)[C@H](O)[C@@H](O)[C@@H]2NC)[C@@H](N/C(N)=N\[H])[C@@H]1O | 20 mg/L
NC[C@H]1O[C@H](O[C@H]2[C@H](O)[C@@H](O[C@H]3O[C@H](CO)[C@@H](O)[C@H](N)[C@H]3O)[C@H](N)C[C@@H]2N)[C@H](O)[C@@H](O)[C@@H]1O | 10 mg/L
CCCNC[C@]1(O)[C@H](C)O[C@@H](O[C@H]2[C@H](C)[C@@H](O[C@@H]3O[C@H](C)C[C@H](N(C)C)[C@H]3O)[C@](C)(O)C[C@@H](C)CN[C@H](C)[C@@H](O)[C@](C)(O)[C@@H](CC)OC(=O)[C@@H]2C)C[C@@]1(C)OC | 2.5 mg/L
CN[C@@H]1[C@H](O)[C@H](NC)[C@H]2O[C@@]3(O)C(=O)C[C@@H](C)O[C@H]3O[C@@H]2[C@H]1O | 2.5 mg/L
CN[C@@H]1[C@@H](O[C@H]2O[C@H](CO)[C@@H](N)[C@H](O)[C@H]2O)OC2C[C@@H](N)[C@@H](O[C@H]3[C@H](O)[C@@H](O)[C@H](N)C[C@@H]3N)OC2[C@@H]1O (stereo partly drawn) | 20 mg/L
CNC(C)C1CCC(N)C(OC2C(N)CC(N)C(OC3OCC(C)(O)C(NC)C3O)C2O)O1 (stereo not drawn) | 5 mg/L
